# Tested system: F508delCFTR (Homo sapiens, UniProt P13569, DEL508-508)
# Construct: expressed in transfected cells; host or cells: CFBE41o- human lung-derived epithelial cells (CFBE4lo-F508delCFTR-HRP), doxycycline-inducible
# Sequence (P13569 with tags, fused parts or gaps DEL508-508): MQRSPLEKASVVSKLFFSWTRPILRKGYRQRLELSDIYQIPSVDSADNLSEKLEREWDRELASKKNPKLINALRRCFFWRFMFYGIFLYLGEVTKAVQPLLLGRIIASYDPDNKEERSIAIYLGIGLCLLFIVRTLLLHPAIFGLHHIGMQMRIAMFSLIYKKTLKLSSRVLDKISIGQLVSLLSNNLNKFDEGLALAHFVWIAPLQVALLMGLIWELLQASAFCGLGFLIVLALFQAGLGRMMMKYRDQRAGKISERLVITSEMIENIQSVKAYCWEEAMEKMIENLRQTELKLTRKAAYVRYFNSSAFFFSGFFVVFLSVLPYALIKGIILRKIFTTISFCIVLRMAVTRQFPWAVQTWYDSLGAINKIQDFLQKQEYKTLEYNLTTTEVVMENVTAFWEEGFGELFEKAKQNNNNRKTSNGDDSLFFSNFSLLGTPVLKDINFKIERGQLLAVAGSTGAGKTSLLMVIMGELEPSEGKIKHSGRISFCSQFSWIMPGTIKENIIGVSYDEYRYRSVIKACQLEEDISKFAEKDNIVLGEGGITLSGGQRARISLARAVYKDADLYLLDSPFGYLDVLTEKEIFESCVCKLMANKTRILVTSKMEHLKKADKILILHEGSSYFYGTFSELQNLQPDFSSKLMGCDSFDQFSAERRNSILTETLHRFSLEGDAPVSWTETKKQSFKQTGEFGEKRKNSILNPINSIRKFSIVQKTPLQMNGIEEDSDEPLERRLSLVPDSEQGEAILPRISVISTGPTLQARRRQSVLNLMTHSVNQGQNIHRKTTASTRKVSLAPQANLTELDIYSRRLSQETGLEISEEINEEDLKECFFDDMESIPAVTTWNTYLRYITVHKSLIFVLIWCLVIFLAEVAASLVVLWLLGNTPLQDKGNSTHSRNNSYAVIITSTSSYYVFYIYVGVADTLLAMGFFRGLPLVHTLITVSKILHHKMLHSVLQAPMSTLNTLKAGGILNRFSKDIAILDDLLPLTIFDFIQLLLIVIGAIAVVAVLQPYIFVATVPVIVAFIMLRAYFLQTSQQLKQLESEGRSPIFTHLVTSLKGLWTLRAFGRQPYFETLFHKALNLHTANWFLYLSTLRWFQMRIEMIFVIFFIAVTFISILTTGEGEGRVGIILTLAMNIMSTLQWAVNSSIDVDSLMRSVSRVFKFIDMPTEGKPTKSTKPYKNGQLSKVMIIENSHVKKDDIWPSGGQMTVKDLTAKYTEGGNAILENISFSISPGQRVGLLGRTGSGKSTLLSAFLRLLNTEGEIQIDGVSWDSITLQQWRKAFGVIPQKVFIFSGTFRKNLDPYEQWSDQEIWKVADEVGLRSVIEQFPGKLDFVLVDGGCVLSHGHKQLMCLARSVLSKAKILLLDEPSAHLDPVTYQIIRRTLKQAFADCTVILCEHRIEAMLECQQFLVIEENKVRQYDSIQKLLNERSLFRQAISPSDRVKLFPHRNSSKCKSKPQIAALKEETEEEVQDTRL
# Assay text: Cell Surface Expression-Horse Radish Peroxidase (CSE-HRP) Assay;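 further: co-corrector and positive control are both the same reference corrector at 2 µM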
# Type: cell-based
# Measurement context: with co-corrector (2 μM); maximum at any tested concentration, normalized to on-plate positive control
Endpoint name: Maximum % activity (with co-corrector)

COc1ccc(C(F)(F)F)c(CN[C@@H]2[C@@H](C(C)(C)C)[C@H](C(=O)O)N(C(=O)C3CCCCC3)[C@@H]2c2ccccc2)c1 (racemic)
++ (≥150 and <350)
COc1ccc(C(C)(C)C)cc1CN[C@H]1[C@H](C(C)(C)C)[C@@H](C(=O)O)N(C(=O)OC(C)C)[C@H]1c1cccnc1OC(C)C
+++ (≥350)
COc1ccc(C(C)c2ccccc2)cc1CN[C@H]1[C@H](C(C)(C)C)[C@@H](C(=O)O)N(C(=O)C2CCCCC2)[C@H]1c1ccccc1 (some centres unmarked)
+++ (≥350)
COc1cc(C(F)(F)F)ccc1CN[C@@H]1[C@@H](C(C)(C)C)[C@H](C(=O)O)N(C(=O)C(C)c2ccccc2)[C@@H]1c1ccccc1 (single isomer, unassigned)
++ (≥150 and <350)
COc1ncc(C(F)(F)F)cc1CN[C@H]1[C@H](C(C)(C)C)[C@@H](C(=O)O)N(C(=O)[C@@H]2CCCCO2)[C@H]1c1ccccc1
+++ (≥350)
COc1ccc(C(F)(F)F)cc1CN[C@H]1[C@H](C(C)(C)C)[C@@H](C(=O)O)N(C(=O)[C@@H](OC)c2ccccc2)[C@H]1c1ccccc1
+++ (≥350)
COc1ccc(C(F)(F)F)cc1CN[C@H]1[C@H](C(C)(C)C)[C@@H](C(=O)O)N(C(=O)C2CC(C)CC(C)C2)[C@H]1c1ccccc1 (some centres unmarked)
+++ (≥350)
COc1ccc(C(C)(C)C)cc1CN[C@H]1[C@H](C(C)(C)C)[C@@H](C(=O)O)N(C(=O)[C@]2(C)COc3cc4c(cc32)OC(F)(F)O4)[C@H]1c1cccnc1OC
++ (≥150 and <350)
COc1ncc(C2CCC2)cc1CN[C@H]1[C@H](C(C)(C)C)[C@@H](C(=O)O)N(C(=O)C2CCCCC2)[C@H]1c1ccccc1C
+++ (≥350)
COc1ncc(C2CCC2)cc1CN(C)[C@H]1[C@H](C(C)(C)C)[C@@H](C(=O)O)N(C(=O)[C@@H]2CCCCO2)[C@H]1c1ccccc1C(C)C
+++ (≥350)
CO[C@H](C(=O)N1[C@H](c2ccccc2)[C@H](Nc2cc(C(F)(F)F)cc(C)n2)[C@@H](C(C)(C)C)[C@@H]1C(=O)O)c1ccccc1 (relative stereo)
++ (≥150 and <350)
COc1ncc(C(F)(F)F)cc1N[C@@H]1[C@@H](C(C)(C)C)[C@H](C(=O)O)N(C(=O)C2CCCCC2)[C@@H]1c1ccccc1 (racemic)
+++ (≥350)
COc1cc(C(F)(F)F)ccc1CN[C@H]1[C@H](C(C)(C)C)[C@@H](C(=O)O)N(C(=O)OC(C)C)[C@H]1c1cccnc1OC(C)C
+++ (≥350)
COc1ccc(C(C)(C)C)cc1CN[C@H]1[C@H](C(C)(C)C)[C@@H](C(=O)O)N(C(=O)C2CCCS(=O)(=O)C2)[C@H]1c1ccccc1 (some centres unmarked)
+++ (≥350)
COc1ncc(C(F)(F)F)cc1CN[C@H]1[C@H](C(C)(C)C)[C@@H](C(=O)O)N(C(=O)[C@H](C)c2ccccc2)[C@H]1c1cccnc1OC
+++ (≥350)
COc1nc(C(C)(C)C)ncc1CN[C@H]1[C@H](C(C)(C)C)[C@@H](C(=O)O)N(C(=O)C2CCCCC2)[C@H]1c1ccccc1
+++ (≥350)
COc1c(CN[C@@H]2[C@@H](C(C)(C)C)[C@H](C(=O)O)N(C(=O)C3CCCCC3)[C@@H]2c2ccccc2)c(C)nn1C (racemic)
+ (<150)
COc1ccc(C(C)(C)C)cc1CN[C@H]1[C@H](C(C)(C)C)[C@@H](C(=O)O)N(C(=O)c2ccc3cccc(F)c3n2)[C@H]1c1ccccc1
+++ (≥350)
COc1ccc(C(C)(C)C)cc1CN[C@H]1[C@H](C(C)(C)C)[C@@H](C(=O)O)N(C(=O)C2CCCS2(=O)=O)[C@H]1c1ccccc1 (some centres unmarked)
+++ (≥350)
COc1cc(C(F)(F)F)ccc1CN[C@@H]1[C@@H](C(C)(C)C)[C@H](C(=O)O)N(C(=O)C2CCCCC2)[C@@H]1c1ccccc1OC
++ (≥150 and <350)
COc1ccc(C(C)(C)C)cc1CN[C@H]1[C@H](C(C)(C)C)[C@@H](C(=O)O)N(C(=O)N(C(C)C)C(C)C)[C@H]1c1ccccc1
+ (<150)
COc1ccc(C(C)(C)C)cc1CN[C@H]1[C@H](C(C)(C)C)[C@@H](C(=O)O)N(C(=O)OC2CCCC2)[C@H]1c1ccccc1
+++ (≥350)
COc1ncc(C(F)(F)F)cc1N[C@H]1[C@H](C(C)(C)C)[C@@H](C(=O)O)N(C(=O)[C@H]2CCCC[C@@H]2C(F)(F)F)[C@H]1c1cccnc1N(C)C
++ (≥150 and <350)

Reference source: patent US20180099931A1
